species: Homo sapiens; experiment: Inhibition of human topoisomerase 2 assessed as decrease in pBR322 mobility on agarose gel at 10 uM by electrophoresis
Class field: derived from inhibition; ranges 0: < 60%; 1: ≥ 60% and < 80%; 2: ≥ 80%

Example entries begin here.
compound: COc1ccc2c(c1)/C(=N\OCCN(C)C)c1c-2c(O)nc2ccccc12
answer.label: 0
--
compound: COc1cccc2c1C(=O)c1c(O)c3c(c(O)c1C2=O)C[C@@](O)(C(=O)CO)C[C@@H]3O[C@H]1C[C@H](N)[C@H](O)[C@H](C)O1 [DOXORUBICIN]
answer.label: 2
--
compound: COc1ccc2c(c1)/C(=N\OCCN(C)C)c1c-2cnc2ccccc12
answer.label: 1
--
compound: CC[C@@]1(O)C(=O)OCc2c1cc1n(c2=O)Cc2cc3ccccc3nc2-1 [CAMPTOTHECIN]
answer.label: 0
--
compound: COc1ccc2c(c1)/C(=N\OCCCN(C)C)c1c-2c(O)nc2ccccc12
answer.label: 1

Now let's try a different one.
Q. Which inhibition band matches `COc1ccc2c(c1)C(=O)c1c-2cnc2ccccc12` ?
A. 0

====

test: Tmax in CD1 mouse at 20 mg/ kg, po; format: ADME, organism-based; set-up: dose 20 mg/ kg, route oral; details: in vivo
assay.readout: Tmax (h)
Give the value, in units of h, as a plain number.

Q. Give Tmax for `COc1ccc2c(c1)/C(=N\OCCN1CCCC1)c1c-2c(O)nc2ccccc12`
A. 1

====

test: Cmax in CD1 mouse at 20 mg/ kg, po; assay type: ADME, organism-based; design: dose 20 mg/ kg, route oral; conditions: in vivo
assay.readout: Cmax (µg/mL)
Give the value, in units of µg/mL, as a plain number.

Q. Give Cmax for `COc1ccc2c(c1)/C(=N\OCCN1CCCC1)c1c-2c(O)nc2ccccc12`
A. 0.063

====

Each record here notes measured RatioGI50.
system: Detroit 551; assay: Selectivity index, ratio of IC50 for human Detroit 551 cells to IC50 for human SKHep cells; type: functional
Just the number, please.

Past entries and their recorded results:
smiles.structure: COc1ccc2c(c1)/C(=N\OCCN1CCCCC1)c1c-2c(N2CCNCC2)nc2ccccc12
test.system: Detroit 551
RatioGI50: 1.46
//
smiles.structure: COc1ccc2c(c1)/C(=N\OCCN(C)C)c1c-2cnc2ccccc12
test.system: Detroit 551
RatioGI50: 5.71

As a next step, examine the molecule that follows.
Q. Give RatioGI50 for `COc1ccc2c(c1)/C(=N\OCCN1CCCCC1)c1c-2cnc2ccccc12`
A. 1.2

====

Each record here notes measured GI50 at 48 h.
assay: Cytotoxicity against human Detroit 551 cells after 48 hrs by MTT assay; format: cell-based
Give the value, in units of µM, as a plain number.

smiles.structure: COc1ccc2c(c1)/C(=N\OCCN(C)C)c1c-2cnc2ccccc12
GI50 at 48 h [µM]: 6.85
//
smiles.structure: COc1ccc2c(c1)/C(=N\OCCN(C)C)c1c-2c(O)nc2ccccc12
GI50 at 48 h [µM]: 9.6
//
smiles.structure: COc1ccc2c(c1)/C(=N\OCCN1CCOCC1)c1c-2c(N2CCNCC2)nc2ccccc12
GI50 at 48 h [µM]: 2.6

Q. Give GI50 at 48 h for `COc1ccc2c(c1)/C(=N\OCCN1CCCC1)c1c-2c(N2CCNCC2)nc2ccccc12`
A. 1.47

====

assay: Inhibition of human topoisomerase 2 assessed as decrease in pBR322 mobility on agarose gel by electrophoresis
assay.readout: pIC50
Units for pIC50: none; it is -log10 of a concentration expressed in mol/L.

Past entries and their recorded results:
smiles.structure: COc1ccc2c(c1)/C(=N\OCCN1CCCC1)c1c-2cnc2ccccc12
meas.value: 5.19
--
smiles.structure: COc1ccc2c(c1)/C(=N\OCCN1CCCCC1)c1c-2c(N2CCNCC2)nc2ccccc12
meas.value: 5.10
--
smiles.structure: COc1ccc2c(c1)/C(=N\OCCCN(C)C)c1c-2c(O)nc2ccccc12
meas.value: 5.15
--
smiles.structure: COc1ccc2c(c1)/C(=N\OCCN1CCCC1)c1c-2c(N2CCNCC2)nc2ccccc12
meas.value: 5.19
--
smiles.structure: COc1ccc2c(c1)/C(=N\OCCN(C)C)c1c-2c(N2CCNCC2)nc2ccccc12
meas.value: 5.31

Q. Give pIC50 for `COc1ccc2c(c1)/C(=N\OCCN(C)C)c1c-2c(O)nc2ccccc12`
A. 4.99

Q. Give pIC50 for `COc1cccc2c1C(=O)c1c(O)c3c(c(O)c1C2=O)C[C@@](O)(C(=O)CO)C[C@@H]3O[C@H]1C[C@H](N)[C@H](O)[C@H](C)O1`
A. 5.72

====

target: DNA topoisomerase 1 (Homo sapiens, UniProt P11387)
assay.readout: IC50

Past entries and their recorded results:
smiles.structure: COc1ccc2c(c1)/C(=N\OCCCN(C)C)c1c-2c(N2CCNCC2)nc2ccccc12
IC50: 6.6 µM
//
smiles.structure: COc1ccc2c(c1)/C(=N\OCCN(C)C)c1c-2c(N2CCNCC2)nc2ccccc12
IC50: 8.5 µM
//
smiles.structure: COc1ccc2c(c1)/C(=N\OCCN1CCCC1)c1c-2cnc2ccccc12
IC50: 8.2 µM

Q. Give IC50 for `COc1ccc2c(c1)/C(=N\OCCN1CCOCC1)c1c-2c(N2CCNCC2)nc2ccccc12`
A. 13 µM

Q. Give IC50 for `COc1ccc2c(c1)/C(=N\OCCN1CCOCC1)c1c-2c(O)nc2ccccc12`
A. > 100 µM

Q. Give IC50 for `COc1ccc2c(c1)/C(=N\OCCN1CCCC1)c1c-2c(O)nc2ccccc12`
A. 3.76 µM

Q. Give IC50 for `COc1ccc2c(c1)C(=O)c1c-2cnc2ccccc12`
A. > 100 µM

Q. Give IC50 for `COc1ccc2c(c1)/C(=N\OCCN1CCCCC1)c1c-2cnc2ccccc12`
A. 16.5 µM

====

assay: Cytotoxicity against human BT-483 cells after 48 hrs by MTT assay; assay type: functional; conditions: BT-483, 48 h
Each record here notes measured GI50.

smiles.structure: COc1ccc2c(c1)/C(=N\O)c1c-2cnc2ccccc12
GI50: > 30000 nM
--
smiles.structure: COc1ccc2c(c1)/C(=N\OCCN1CCCCC1)c1c-2c(O)nc2ccccc12
GI50: 1590 nM
--
smiles.structure: COc1ccc2c(c1)/C(=N\OCCN1CCCC1)c1c-2c(N2CCNCC2)nc2ccccc12
GI50: 1430 nM
--
smiles.structure: COc1ccc2c(c1)/C(=N\OCCN(C)C)c1c-2c(O)nc2ccccc12
GI50: 4040 nM
--
smiles.structure: COc1ccc2c(c1)/C(=N\OCCCN(C)C)c1c-2c(N2CCNCC2)nc2ccccc12
GI50: 1370 nM
--
smiles.structure: COc1ccc2c(c1)/C(=N\OCCN1CCOCC1)c1c-2cnc2ccccc12
GI50: 10200 nM
--
smiles.structure: COc1ccc2c(c1)/C(=N\OCCN1CCCC1)c1c-2c(O)nc2ccccc12
GI50: 790 nM

As a next step, examine the compound that follows.
Q. Give GI50 for `COc1ccc2c(c1)C(=O)c1c-2cnc2ccccc12`
A. > 30000 nM

====

test: Mean retention time in CD1 mouse at 2 mg/ kg, iv; format: ADME, organism-based; parameters: dose 2 mg/ kg, route intravenous; details: in vivo
assay.readout: MRT (h)
Give the value, in units of h, as a plain number.

Q. Give MRT for `COc1ccc2c(c1)/C(=N\OCCN1CCCC1)c1c-2c(O)nc2ccccc12`
A. 1.1

====

Each record here notes measured RatioGI50.
test system: Detroit 551; experiment: Selectivity index, ratio of IC50 for human Detroit 551 cells to IC50 for human A549 cells; format: functional

smiles.structure: COc1ccc2c(c1)/C(=N\OCCN(C)C)c1c-2cnc2ccccc12
RatioGI50: 5.27
//
smiles.structure: COc1ccc2c(c1)/C(=N\OCCN1CCCC1)c1c-2c(N2CCNCC2)nc2ccccc12
RatioGI50: 4.63

As a next step, examine the molecule that follows.
Q. Give RatioGI50 for `COc1ccc2c(c1)/C(=N\OCCN1CCCCC1)c1c-2c(N2CCNCC2)nc2ccccc12`
A. 2.64

====

assay: Volume of distribution at steady state in CD1 mouse at 2 mg/ kg, iv; format: ADME, organism-based; parameters: dose 2 mg/ kg, route intravenous; details: in vivo, read-out: Vdss
assay.readout: Vd (L/kg)
Give the value, in units of L/kg, as a plain number.

Q. Give Vd for `COc1ccc2c(c1)/C(=N\OCCN1CCCC1)c1c-2c(O)nc2ccccc12`
A. 12.3

====

Molecular target: UniProt P11387
Sequence (whole entry): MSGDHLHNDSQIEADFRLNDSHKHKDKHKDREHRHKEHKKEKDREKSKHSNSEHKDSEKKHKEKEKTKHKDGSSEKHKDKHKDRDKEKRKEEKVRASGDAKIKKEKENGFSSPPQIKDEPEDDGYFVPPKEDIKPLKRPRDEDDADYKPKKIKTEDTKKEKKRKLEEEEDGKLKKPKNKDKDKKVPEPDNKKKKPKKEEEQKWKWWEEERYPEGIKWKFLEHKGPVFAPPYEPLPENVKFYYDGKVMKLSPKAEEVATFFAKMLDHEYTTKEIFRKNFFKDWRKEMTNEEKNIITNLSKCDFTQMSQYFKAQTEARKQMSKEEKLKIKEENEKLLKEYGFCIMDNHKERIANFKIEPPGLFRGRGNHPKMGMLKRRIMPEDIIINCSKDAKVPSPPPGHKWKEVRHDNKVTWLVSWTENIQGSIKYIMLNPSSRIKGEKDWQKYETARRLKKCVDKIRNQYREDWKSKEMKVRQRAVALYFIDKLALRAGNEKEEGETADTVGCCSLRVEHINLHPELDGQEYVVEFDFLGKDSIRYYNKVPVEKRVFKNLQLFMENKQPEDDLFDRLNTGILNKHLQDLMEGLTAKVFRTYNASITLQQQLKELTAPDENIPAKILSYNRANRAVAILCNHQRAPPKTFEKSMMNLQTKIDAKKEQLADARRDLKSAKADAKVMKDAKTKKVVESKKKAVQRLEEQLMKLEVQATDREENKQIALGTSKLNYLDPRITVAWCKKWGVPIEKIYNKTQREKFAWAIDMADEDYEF
Assay: Inhibition of human topoisomerase 1 assessed as decrease in pBR322 mobility on agarose gel at 10 uM by electrophoresis
Each entry gets not satisfied if its inhibition stays under 30%, and satisfied if its inhibition is 30% or above.

compound: COc1ccc2c(c1)/C(=N\OCCN1CCCCC1)c1c-2c(O)nc2ccccc12
answer.label: not satisfied

Q. For this compound, is measured inhibition 30% or higher? `COc1ccc2c(c1)/C(=N\OCCN1CCOCC1)c1c-2c(O)nc2ccccc12`
A. not satisfied

Q. For this compound, is measured inhibition 30% or higher? COc1cccc2c1C(=O)c1c(O)c3c(c(O)c1C2=O)C[C@@](O)(C(=O)CO)C[C@@H]3O[C@H]1C[C@H](N)[C@H](O)[C@H](C)O1 [DOXORUBICIN]
A. satisfied

Q. For this compound, is measured inhibition 30% or higher? `COc1ccc2c(c1)/C(=N\OCCN(C)C)c1c-2c(N2CCNCC2)nc2ccccc12`
A. satisfied

Q. For this compound, is measured inhibition 30% or higher? `COc1ccc2c(c1)/C(=N\OCCCN(C)C)c1c-2c(N2CCNCC2)nc2ccccc12`
A. satisfied

Q. For this compound, is measured inhibition 30% or higher? `COc1ccc2c(c1)C(=O)c1c-2cnc2ccccc12`
A. not satisfied

Q. For this compound, is measured inhibition 30% or higher? `COc1ccc2c(c1)/C(=N\OCCN1CCOCC1)c1c-2cnc2ccccc12`
A. not satisfied

Q. For this compound, is measured inhibition 30% or higher? `COc1ccc2c(c1)/C(=N\OCCN1CCCC1)c1c-2c(O)nc2ccccc12`
A. satisfied

Q. For this compound, is measured inhibition 30% or higher? `COc1ccc2c(c1)/C(=N\OCCN1CCCCC1)c1c-2c(N2CCNCC2)nc2ccccc12`
A. satisfied
